protocol.notes: in vivo
Parameters: species or system CF-1 normal mice
particulars: CF-1, mouse, iv, total radioactivity, Stomach uptake
Listed next: entries and their corresponding tissue uptake at 1 h.
The response must be a number in %ID/g with no trailing unit.

Please review the entries below; each comes with its answer.
INSERT INTO results (compound, reading) VALUES
  ('CC(C)C[C@H](NC(=O)C[C@H](O)[C@H](CC(C)C)NC(=O)[C@H](Cc1c[nH]cn1)NC(=O)CNC(=O)[C@@H](NC(=O)[C@H](C)NC(=O)[C@H](Cc1c[nH]c2ccccc12)NC(=O)[C@H](CCC(N)=O)NC(=O)[C@@H](Cc1ccccc1)NC(=O)CCCCCCCNC(=O)[C@H](CCCCNC(=O)CN1CCN(CC(=O)O)CCN(CC(=O)O)CCN(CC(=O)O)CC1)NC(=O)CCCCCNC(=O)CC[C@H](NC(=O)N[C@@H](CCC(=O)O)C(=O)O)C(=O)O)C(C)C)C(N)=O [DUPA-6-Ahx-Lys(^111In-DOTA)-8-Aoc-RM2, metal not drawn]', 1.73),
  ('CC(C)C[C@H](NC(=O)C[C@H](O)[C@H](CC(C)C)NC(=O)[C@H](Cc1c[nH]cn1)NC(=O)CNC(=O)[C@@H](NC(=O)[C@H](C)NC(=O)[C@H](Cc1c[nH]c2ccccc12)NC(=O)[C@H](CCC(N)=O)NC(=O)[C@@H](Cc1ccccc1)NC(=O)CCCCCNC(=O)[C@H](CCCCNC(=O)CN1CCN(CC(=O)O)CCN(CC(=O)O)CCN(CC(=O)O)CC1)NC(=O)CCCCCNC(=O)CC[C@H](NC(=O)N[C@@H](CCC(=O)O)C(=O)O)C(=O)O)C(C)C)C(N)=O [DUPA-6-Ahx-Lys(^111In-DOTA)-6-Ahx-RM2, metal not drawn]', 0.14);

Reported tissue uptake at 1 h ( CC(C)C[C@H](NC(=O)C[C@H](O)[C@H](CC(C)C)NC(=O)[C@H](Cc1c[nH]cn1)NC(=O)CNC(=O)[C@@H](NC(=O)[C@H](C)NC(=O)[C@H](Cc1c[nH]c2ccccc12)NC(=O)[C@H](CCC(N)=O)NC(=O)[C@@H](Cc1ccccc1)NC(=O)c1ccc(NC(=O)[C@H](CCCCNC(=O)CN2CCN(CC(=O)O)CCN(CC(=O)O)CCN(CC(=O)O)CC2)NC(=O)CCCCCNC(=O)CC[C@H](NC(=O)N[C@@H](CCC(=O)O)C(=O)O)C(=O)O)cc1)C(C)C)C(N)=O [DUPA-6-Ahx-Lys(^111In-DOTA)-AMBA-RM2, metal not drawn] ) = 0.15

====

protocol.notes: in vivo
Set-up: species or system CF-1 normal mice
particulars: CF-1, mouse, iv, total radioactivity, Spleen uptake
observed.property: tissue uptake at 1 h (%ID/g)
Dear colleague, please return just the value in %ID/g, with no unit written.

Recorded tissue uptake at 1 h (molecule CC(C)C[C@H](NC(=O)C[C@H](O)[C@H](CC(C)C)NC(=O)[C@H](Cc1c[nH]cn1)NC(=O)CNC(=O)[C@@H](NC(=O)[C@H](C)NC(=O)[C@H](Cc1c[nH]c2ccccc12)NC(=O)[C@H](CCC(N)=O)NC(=O)[C@@H](Cc1ccccc1)NC(=O)CCCCCNC(=O)[C@H](CCCCNC(=O)CN1CCN(CC(=O)O)CCN(CC(=O)O)CCN(CC(=O)O)CC1)NC(=O)CCCCCNC(=O)CC[C@H](NC(=O)N[C@@H](CCC(=O)O)C(=O)O)C(=O)O)C(C)C)C(N)=O [DUPA-6-Ahx-Lys(^111In-DOTA)-6-Ahx-RM2, metal not drawn] ): 0.12
